All figures here come from patent US20150105252A1.

// values below are reported Oilseed Rape plant response rating
# Tested on: oilseed rape
# run-description: Test C postemergence
# Assay type: in vivo, Brassica napus
# reported-conditions: postemergence, 62 g ai/ha; scale 0 to 100
measurement-name: Oilseed Rape plant response rating

# structure-smiles, assayed-system, readout-number
data = [
    ("O=C(NC1CC1)c1cc(CCCl)n(Cc2ccnc(C(F)(F)F)c2)n1", "oilseed rape", 50),
    ("CCc1cc(C(=O)NC2CC2)nn1Cc1ccnc(Br)c1", "oilseed rape", 5),
    ("CCOc1cc(C(=O)NOC(C)C)nn1Cc1ccnc(C(F)(F)F)c1", "oilseed rape", 25),
    ("CCCc1cc(C(=O)NC2CC2)nn1Cc1ccnc(OC(F)F)c1", "oilseed rape", 25),
    ("CCCc1cc(C(=O)NC2CC2)nn1Cc1cc(C(F)(F)F)nn1C", "oilseed rape", 30),
    ("CCc1cc(C(=O)NCC(F)(F)F)nn1Cc1ccnc(SC(F)(F)F)c1", "oilseed rape", 60),
    ("CCONC(=O)c1cc(CC)n(Cc2ccnc(OC(F)F)c2)n1", "oilseed rape", 35),
]

###

# Tested on: wheat
# run-description: Test A preemergence
# Assay type: in vivo, Triticum aestivum
# reported-conditions: preemergence, 125 g ai/ha, visual injury approx. 10 days after treatment
measurement-name: Wheat plant response rating (0 to 100 scale)

# structure-smiles, assayed-system, readout-number
records = [
    ("CCc1cc(C(=O)NCC(F)(F)F)nn1Oc1cccc(C(F)(F)F)c1", "wheat", 0),
    ("O=C(NCC(F)(F)F)c1cc(Cl)n(Cc2cccc(C(F)(F)F)c2)n1", "wheat", 0),
    ("CCc1cc(C(=O)NC(C)C)nn1Cc1ccnc(OCC(F)(F)F)c1", "wheat", 0),
    ("CCNC(=O)c1cc(CC)n(Cc2cc(C(F)(F)F)nn2C)n1", "wheat", 0),
    ("CCCc1cc(C(=O)NC(C)C)nn1Cc1ccnc(C(F)(F)F)c1", "wheat", 90),
    ("CCCNC(=O)c1cc(OCC)n(Cc2ccnc(C(F)(F)F)c2)n1", "wheat", 80),
    ("CCc1cc(C(=O)NC)nn1Cc1ccnc(C(F)(F)F)c1", "wheat", 0),
    ("CCCNC(=O)c1cc(CCF)n(Cc2ccnc(C(F)(F)F)c2)n1", "wheat", 10),
    ("CCCc1cc(C(=O)NOC(C)C)nn1Cc1cc(C(F)(F)F)nn1C", "wheat", 80),
]

###

# Tested on: crabgrass, large
# run-description: Test A preemergence
# Format: in vivo, Digitaria sanguinalis
# reported-conditions: preemergence, 125 g ai/ha; visual injury, 0 to 100 scale, approx. 10 days
// values below are reported Crabgrass, Large plant response rating

# compound, Crabgrass, Large plant response rating
records = [
    ("CCONC(=O)c1cc(CC)n(Cc2cccc(OC(F)(F)F)c2)n1 [Compound 72]", 90),
    ("Cc1cc(C(=O)NCC(F)(F)C(F)(F)F)nn1Cc1cccc(OC(F)(F)F)c1 [Compound 6]", 0),
    ("CCCNC(=O)c1cc(CC)n(Cc2ccnc(C(F)(F)F)c2)n1 [Compound 75]", 100),
    ("CCc1cc(C(=O)NCC(F)(F)F)nn1Cc1nc(C(F)(F)F)nn1C [Compound 107]", 100),
    ("CCc1cc(C(=O)NOC(C)C)nn1Cc1cccc(OC(F)(F)F)c1 [Compound 70]", 100),
    ("CCONC(=O)c1cc(CC)n(Cc2ccnc(OC(F)F)c2)n1 [Compound 131]", 100),
    ("CCc1cc(C(=O)NCC(F)(F)F)nn1Cc1cc(C(F)(F)F)nn1C [Compound 108]", 100),
    ("Cc1cc(C(=O)NCC(F)(F)F)nn1Cc1cccc(C(F)(F)F)c1F [Compound 9]", 0),
    ("CCc1cc(C(=O)NC2CC2)nn1Cc1ccnc(C(F)(F)F)c1 [Compound 76]", 90),
    ("CCc1cc(C(=O)NC2CC2)nn1Cc1cccc(C(F)(F)F)n1 [Compound 91]", 0),
    ("Cc1cc(C(=O)NC2CC2)nn1Oc1ccnc(C(F)(F)F)c1 [Compound 81]", 60),
]

###

# Test system: sedge, umbrella
# run-description: Test C flooded paddy test
# Type: in vivo, Cyperus difformis
# reported-conditions: Flood, 31 g ai/ha; scale 0 to 100 (0 no effect, 100 complete control)

# structure-smiles, Plant response rating, Sedge, Umbrella
measured = [
    ("CCCNC(=O)c1cc(COC)n(Cc2ccnc(C(F)(F)F)c2)n1", 0),
    ("O=C(NC1CC1)c1cc(CCF)n(Cc2ccnc(C(F)(F)F)c2)n1", 0),
    ("CCONC(=O)c1cc(CC)n(Cc2ccnc(C(F)(F)F)c2)n1", 0),
    ("CCCc1cc(C(=O)NCC(F)(F)F)nn1Cc1cccc(OC(F)(F)F)c1", 20),
    ("CCCc1cc(C(=O)NCC)nn1Cc1cccc(OC(F)(F)F)c1", 10),
]

###

# System: johnsongrass
# run-description: Test C postemergence
# Format: in vivo, Sorghum halepense
# reported-conditions: postemergence, 62 g ai/ha; scale 0 to 100
# Text: […]
// values below are reported Johnsongrass plant response rating
measurement-name: Johnsongrass plant response rating

# structure-smiles, readout-number
rows = [
    ("CCONC(=O)c1cc(CC)n(Cc2ccnc(C(F)(F)F)c2)n1", 5),
    ("CCOc1cc(C(=O)NCC(F)(F)F)nn1Cc1ccnc(OC(F)F)c1", 5),
    ("CCc1cc(C(=O)NCC(F)(F)F)nn1Cc1cc(C(F)(F)F)nn1C", 0),
    ("CCCNC(=O)c1cc(OCC)n(Cc2ccnc(OC(F)F)c2)n1", 5),
    ("CCc1cc(C(=O)NC2CC2)nn1Cc1ccnc(Br)c1", 0),
]

###

# Tested on: sedge, umbrella
# run-description: Test C flooded paddy test
# Assay type: in vivo, Cyperus difformis
# reported-conditions: Flood, 125 g ai/ha; scale 0 to 100
# Text: At time of treatment, test pots were flooded to 3 cm above the soil surface, treated by application of test compounds directly to the paddy water, and then maintained at that water depth for the duration of the test. Treated plants and controls were maintained in a greenhouse for 13 to 15 days, after which time all species were compared to controls and visually evaluated. […] A dash (-) response means no test result.

# compound, Plant response rating, Sedge, Umbrella
records = [
    ("CCc1cc(C(=O)NC(C)C)nn1Cc1ccnc(OCC(F)(F)F)c1 [Compound 149]", 80),
    ("CCCNC(=O)c1cc(CCC)n(Cc2cccc(OC(F)(F)F)c2)n1 [Compound 35]", 50),
    ("CCCc1cc(C(=O)NCC(F)(F)F)nn1Cc1cccc(OC(F)(F)F)c1 [Compound 32]", 50),
    ("CCONC(=O)c1cc(CC)n(Cc2ccnc(C(F)(F)F)c2)n1 [Compound 77]", 60),
    ("CCONC(=O)c1cc(CC)n(Cc2cccc(OC(F)(F)F)c2)n1 [Compound 72]", 65),
    ("Cc1cc(C(=O)NCC(F)(F)F)nn1Cc1ccnc(C(F)(F)F)c1 [Compound 74]", 0),
]

###

// values below are reported Plant response rating, Chickweed
# Tested on: chickweed
# run-description: Test C postemergence
# Format: in vivo, Stellaria media
# reported-conditions: postemergence; 125 g ai/ha; scale 0 to 100, 0 no effect, 100 complete control
measurement-name: Plant response rating, Chickweed

# structure-smiles, readout-number
measured = [
    ("CCCNC(=O)c1cc(OCC)n(Cc2ccnc(OC(F)F)c2)n1", 100),
    ("CCc1cc(C(=O)NC2CC2)nn1Cc1ccnc(C(F)(F)F)c1", 80),
    ("CCc1cc(C(=O)NOC(C)C)nn1Cc1cccc(OC(F)(F)F)c1", 50),
    ("Cc1cc(C(=O)NCC(F)(F)F)nn1Cc1ccnc(C(F)(F)F)c1", 45),
    ("CCc1cc(C(=O)NC2CC2)nn1Cc1ccnc(Br)c1", 60),
    ("CCCNC(=O)c1cc(CC)n(Cc2nc(C(F)(F)F)nn2C)n1", 55),
]

###

# Test system: chickweed
# run-description: Test C postemergence
# Assay type: in vivo, Stellaria media
# reported-conditions: postemergence, 250 g ai/ha; scale 0 to 100 (0 no effect, 100 complete control)

# structure-smiles, Plant response rating, Chickweed
data = [
    ("CCCc1cc(C(=O)NC(C)C)nn1Cc1ccnc(C(F)(F)F)c1", 100),
    ("CCNC(=O)c1cc(CC)n(Cc2cc(C(F)(F)F)nn2C)n1", 90),
    ("CCc1cc(C(=O)NC2CC2)nn1Cc1ccnc(Br)c1", 80),
    ("CCc1cc(C(=O)NCC(F)(F)F)nn1Cc1ccnc(SC(F)(F)F)c1", 85),
    ("CCc1cc(-c2ccc(C(F)(F)F)cc2)nn1Cc1ccnc(C(F)(F)F)c1", 95),
    ("O=C(NC1CC1)c1cc(CCCl)n(Cc2ccnc(C(F)(F)F)c2)n1", 90),
    ("CCCc1cc(C(=O)NCC(F)(F)F)nn1Cc1ccnc(OC(F)F)c1", 80),
    ("CCc1cc(C(=O)NCC(F)(F)F)nn1Cc1nc(C(F)(F)F)nn1C", 100),
    ("CCONC(=O)c1cc(CC)n(Cc2cccc(OC(F)(F)F)c2)n1", 80),
    ("CCCc1cc(C(=O)NC2CC2)nn1Cc1cc(C(F)(F)F)nn1C", 85),
]
